# System: cellular dehydrogenase activity
# protocol.conditions: composite Z-score vs DMSO; Conc 20 μM
Entries and their measured MTT follow.
observation.type: MTT

# compound, observation.type, val
rows = [
    ("CCN1C[C@]2(COC)[C@H](O)C[C@H](OC)[C@@]34[C@@H]5C[C@@]6(O)[C@H](OC(=O)c7ccccc7)[C@@H]5[C@@](OC(C)=O)([C@@H]([C@H](OC)[C@H]23)[C@@H]14)[C@@H](O)[C@@H]6OC", "MTT", "−0.584"),
    ("C[C@@H]1[C@H](O)[C@@H](C)/C=C/C=C/CC/C=C/C=C/C=C/C=C/C(O[C@H]2O[C@H](C)[C@@H](O)[C@H](N)[C@@H]2O)CC2O[C@](O)(CC(O)C(O)CCC(O)CC(O)CC(O)CC(=O)O[C@H]1C)CC(O)C2C(=O)O (some centres unmarked)", "MTT", 0.161),
]
